Collected literature values of pIC50 measured for Proto-oncogene tyrosine-protein kinase Src (Homo sapiens).
pIC50: −log10 of the molar value.

Report value: pIC50, system: Proto-oncogene tyrosine-protein kinase Src (Homo sapiens), compound: NC(=O)CNC(=O)c1nc2nc(Nc3ccc(F)cc3)ncc2cc1-c1ccccc1Br
7.20

Report value: pIC50, system: Proto-oncogene tyrosine-protein kinase Src (Homo sapiens), compound: CCOC(=O)Cc1cn(-c2ncnc(Nc3cc(OC)c(OC)c(OC)c3)n2)c2ccccc12
5.29 to 6.06

Report value: pIC50, system: Proto-oncogene tyrosine-protein kinase Src (Homo sapiens), compound: Cc1cccc(C)c1C(=O)c1c[nH]c2ncccc12
≥ 5.00

Report value: pIC50, system: Proto-oncogene tyrosine-protein kinase Src (Homo sapiens), compound: CCCS(=O)(=O)Nc1cccc(C(=O)c2c[nH]c3ncc(-c4cccnc4)cc23)c1F
≥ 5.00
